- Test system: K-562 leukemia
- experimentDescription: NCI tumour cell line growth inhibition, 48 h; in the data active = GI50 below about 0.43 µM; inactive = the rest
Answer with one of the outcomes given here: active, inactive

compound	labelClass
COc1ccc(-c2nn(-c3cccc(Cl)c3)cc2/C=C2\NC(=S)N(c3ccc(Cl)cc3)C2=O)cc1	inactive
Cc1nnc(C[C@@H]2C=C(c3ccc(Cl)cc3)c3ccccc3-n3c(C)nnc32)o1	inactive
Nc1nc(N)c2c(n1)NC(c1sc(Cl)nc1Cl)CC(c1ccccc1)=N2 (stereo unspecified)	inactive
Nc1nc(=O)n(C2CC(O)C(CO)O2)cc1F (stereo unspecified)	inactive
CC/C=C\C[C@H]1C/C=C2/C(=O)C=C[C@H]2C/C=C\CCCC(=O)O1	inactive

Here's the next entry for you.
[Q] Dear colleague, could you share the recorded outcome for O=C(Nc1ccc(OS(=O)(=O)c2ccc(F)cc2)cc1)C12CC3CC(CC(C3)C1)C2 when you have a moment?
[A] active
